List of pKi values.
# measured-on: UniProtKB P21917
# Sequence (P21917 whole entry): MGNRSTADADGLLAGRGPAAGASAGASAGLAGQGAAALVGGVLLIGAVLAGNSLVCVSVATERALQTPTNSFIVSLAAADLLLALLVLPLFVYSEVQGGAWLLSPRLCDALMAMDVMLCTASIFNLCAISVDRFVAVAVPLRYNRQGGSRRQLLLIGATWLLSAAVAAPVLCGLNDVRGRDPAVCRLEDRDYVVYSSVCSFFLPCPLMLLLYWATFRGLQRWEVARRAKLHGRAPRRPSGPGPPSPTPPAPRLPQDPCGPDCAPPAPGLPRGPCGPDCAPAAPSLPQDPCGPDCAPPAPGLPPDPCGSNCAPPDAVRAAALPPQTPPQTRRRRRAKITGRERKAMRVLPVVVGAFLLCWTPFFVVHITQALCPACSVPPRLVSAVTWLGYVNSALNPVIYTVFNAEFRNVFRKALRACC
pKi: −log10 of the molar value.
property-name: pKi

>  <structure>
CCCCN1CCN(CCCN2C(=O)CCc3ccccc32)CC1

>  <numeric-readout>
6.50

$$$$
>  <structure>
O=C1CCc2ccccc2N1CCCN1CCC(Cc2ccccc2)CC1

>  <numeric-readout>
8.90

$$$$
>  <structure>
CC1CCN(CCCN2C(=O)CCc3ccccc32)CC1

>  <numeric-readout>
6.59

$$$$
>  <structure>
O=C1CCc2ccccc2N1CCCN1CCN(c2ccccc2)CC1

>  <numeric-readout>
8.54

$$$$
>  <structure>
O=C1CCc2ccccc2N1CCCN1CCN(CCc2ccccc2)CC1

>  <numeric-readout>
7.54

$$$$
>  <structure>
O=C1CCc2ccccc2N1CCCN1CCC(CCc2ccccc2)CC1

>  <numeric-readout>
8.67

$$$$
>  <structure>
CCCCCC1CCN(CCCN2C(=O)CCc3ccccc32)CC1

>  <numeric-readout>
8.86

$$$$
